Hello, the source for this data is patent US20250376519A1, in case you need it.

Collected EC50 values appear next to each entry.
Target: T1, human DLL3 on cells (human, UniProt Q9NYJ7 27-618)
T1 construct: Endogenous on H1184 and SHP77; Cell line is named under assay; also called H1184; DLL3/H82
T1 sequence: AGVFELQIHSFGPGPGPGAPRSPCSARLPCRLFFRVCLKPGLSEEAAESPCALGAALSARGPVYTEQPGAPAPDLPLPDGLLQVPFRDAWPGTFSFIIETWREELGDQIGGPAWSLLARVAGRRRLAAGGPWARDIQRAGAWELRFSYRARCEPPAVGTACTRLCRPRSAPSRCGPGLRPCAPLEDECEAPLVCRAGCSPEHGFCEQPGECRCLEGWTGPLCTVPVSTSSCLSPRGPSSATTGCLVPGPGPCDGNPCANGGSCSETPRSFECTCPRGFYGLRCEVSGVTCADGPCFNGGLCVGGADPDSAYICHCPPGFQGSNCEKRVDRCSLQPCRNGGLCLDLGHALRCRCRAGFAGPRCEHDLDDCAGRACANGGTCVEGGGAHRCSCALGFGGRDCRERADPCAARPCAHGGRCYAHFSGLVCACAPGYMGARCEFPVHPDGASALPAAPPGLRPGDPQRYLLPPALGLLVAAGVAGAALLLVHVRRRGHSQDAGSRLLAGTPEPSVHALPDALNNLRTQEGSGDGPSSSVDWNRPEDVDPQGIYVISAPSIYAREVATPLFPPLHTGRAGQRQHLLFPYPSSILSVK
Assay: flow cytometry, SHP77 cells
# unit: nM | format: bare number

hu30L4H11 (antibody, human IgG1, kappa, V domains shown) VH: EVRLVQFGAVVKKPGASVKVSCKASGYTFTDYYMNWVRQAPGQSLEWMGIINPYTGDTSYNQKFRGRVTLTVDKSSSTAYMELSSLTSEDTAVYYCARYHYGPHLEGYFDVWGQGTTVTVSS VL: DIQMTQSPSSLSASVGDRVTITCKASENVGYVSWYQQKPGKAPKLLIYGASNRYTGVPSRFSGSGSGTDFTLTISSLQPEDFATYYCGQSYSYPLTFGQGTKLEIKR :: 7.82
hu30L4H9 (antibody, human IgG1, kappa, V domains shown) VH: EVRLVQSGAEVKKPGASVKVSCKASGYTFTDYYMNWVRQAPGQSLEWIGIINPYTGDTSYNQKFRGRATLTVDKSASTAYMELSSLRSEDTAVYYCARYHYGPHLEGYFDVWGQGTTVTVSS VL: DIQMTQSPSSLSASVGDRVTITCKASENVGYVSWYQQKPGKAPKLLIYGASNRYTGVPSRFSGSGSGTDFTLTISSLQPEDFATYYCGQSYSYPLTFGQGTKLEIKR :: 9.94
hu30L1H8 (antibody, human IgG1, kappa, V domains shown) VH: EVRLVQFGAVVKKPGASVKVSCKASGYTFTDYYMNWVRQAPGQSLEWMGIINPYTGDTSYNQKFRGRVTLTVDKSSSTAYMELSSLRSEDTAVYYCARYHYGPHLEGYFDVWGQGTTVTVSS VL: DIVMTQSPDSLAVSLGERATINCKASENVGYVSWYQQKPGQPPKLLIYGASNRYTGVPDRFSGSGSGTDFTLTISSLQAEDVAVYYCGQSYSYPLTFGQGTKLEIKR :: 5.67
hu30L4H5 (antibody, human IgG1, kappa, V domains shown) VH: EVRLVQSGAEVKKPGASVKVSCKASGYTFTDYYMNWVRQAPGQSLEWMGIINPYTGDTSYNQKFRGRVTLTVDKSASTAYMELSSLRSEDTAVYYCARYHYGPHLEGYFDVWGQGTTVTVSS VL: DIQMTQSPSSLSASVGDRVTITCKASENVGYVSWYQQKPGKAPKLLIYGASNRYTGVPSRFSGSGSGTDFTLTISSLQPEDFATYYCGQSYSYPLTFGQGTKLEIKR :: 5.44
hu30L5H9 (antibody, human IgG1, kappa, V domains shown) VH: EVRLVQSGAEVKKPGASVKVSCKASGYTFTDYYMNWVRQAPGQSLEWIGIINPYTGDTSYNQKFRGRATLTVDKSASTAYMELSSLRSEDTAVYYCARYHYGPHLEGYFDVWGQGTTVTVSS VL: DIQMTQSPSSLSASVGDRVTITCKASENVGYVSWYQQKPGKSPKLLIYGASNRYTGVPDRFSGSGSGTDFTLTISSLQPEDFATYYCGQSYSYPLTFGSGTKLEIKR :: 9.6
hu30L1H10 (antibody, human IgG1, kappa, V domains shown) VH: EVRLVQSGAEVKKPGASVKVSCKASGYTFTDYYMNWVRQSHGQSLEWMGIINPYTGDTSYNQKFRGRVTLTVDKSASTAYMELSSLRSEDTAVYYCARYHYGPHLEGYFDVWGQGTTVTVSS VL: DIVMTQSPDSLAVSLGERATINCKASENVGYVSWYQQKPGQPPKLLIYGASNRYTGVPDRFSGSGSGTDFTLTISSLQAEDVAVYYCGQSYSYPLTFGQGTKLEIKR :: 7.99
hu30L4H8 (antibody, human IgG1, kappa, V domains shown) VH: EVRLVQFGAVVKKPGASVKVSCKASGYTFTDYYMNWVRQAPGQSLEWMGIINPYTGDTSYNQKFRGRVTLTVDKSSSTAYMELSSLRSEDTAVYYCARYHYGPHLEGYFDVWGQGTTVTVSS VL: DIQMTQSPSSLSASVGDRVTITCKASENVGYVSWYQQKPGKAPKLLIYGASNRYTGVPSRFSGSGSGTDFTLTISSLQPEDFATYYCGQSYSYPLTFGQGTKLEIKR :: 5.3
hu30L5H5 (antibody, human IgG1, kappa, V domains shown) VH: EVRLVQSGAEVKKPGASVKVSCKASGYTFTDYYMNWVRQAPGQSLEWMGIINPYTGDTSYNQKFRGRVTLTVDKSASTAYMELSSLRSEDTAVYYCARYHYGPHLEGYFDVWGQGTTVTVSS VL: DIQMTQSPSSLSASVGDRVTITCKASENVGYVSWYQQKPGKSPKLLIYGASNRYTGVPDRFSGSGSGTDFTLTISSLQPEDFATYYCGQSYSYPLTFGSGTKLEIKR :: 7.48

We next turn to a different binder, shown below.
Problem: // lookup EC50 for hu30L1H5 (antibody, human IgG1, kappa, V domains shown) VH: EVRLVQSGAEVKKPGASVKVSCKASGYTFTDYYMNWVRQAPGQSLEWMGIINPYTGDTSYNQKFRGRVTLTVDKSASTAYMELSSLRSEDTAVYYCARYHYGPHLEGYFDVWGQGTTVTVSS VL: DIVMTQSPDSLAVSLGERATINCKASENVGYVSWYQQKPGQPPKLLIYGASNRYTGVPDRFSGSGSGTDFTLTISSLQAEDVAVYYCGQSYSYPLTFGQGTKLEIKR
Solution: 6.45
